Origin of values: ChEMBL document CHEMBL5335866

PROTOCOL DESCRIPTION: Intrinsic clearance in mouse liver microsomes at 1 uM preincubated for 5 mins followed by NADPH addition measured for 60 mins by LC-MS/MS analysis
Format: ADME, Microsome
TEST CONDITIONS: time 65 min, read-out: CLH
MEASURED PROPERTY: microsomal CLint at 1 µM (µL/min/mg)
The reply should contain only the number, in µL/min/mg.

Exercise: What microsomal CLint at 1 µM value was documented for this molecule, CC1(C)Cn2nc(-c3ccc(F)cn3)c(-c3ccnc4[nH]ncc34)c2CO1 ?
Key: 22.7

====

Field: efflux ratio at 1 h, 5 µM. Provide a value for each of the compounds that follow.
Tested on: MDR1
PROTOCOL DESCRIPTION: Efflux ratio of apparent permeability across basal to apical side over apical to basal side in MDCK cells expressing MDR1 at 5 uM incubated for 60 mins by LC/MS/MS analysis
Type: ADME, cell-based, Canis lupus familiaris, MDCK1
TEST CONDITIONS: dog
Answer with the value's number alone.

Exercise: # input compound: Cn1cc(-c2ccnc3[nH]ccc23)c(-c2ccc(F)cc2)n1 ; wanted: its efflux ratio at 1 h, 5 µM
Key: 1.02

Exercise: Next compound up: Cn1cc(-c2ccnc3[nH]ncc23)c(-c2ccc(F)cc2)n1
Key: 3
